Experiment: Cellular viability qHTS for adrenocortical cancer (ACC) cell line NCI-H295R (AID 1963990); further: nearly all actives have a fitted effect of over 60% in size
Conditions: CellTiter-Glo ATP luminescence, 48 h; series mostly up to 46.1 µM
Inconclusive results are not listed. Active and inactive are the calls of the source. The call rests on the fitted dose curve; in most records, active means well fitted cell-killing curve with a large enough effect; inconclusive means small, poorly fitted or top-dose-only effect; inactive means flat fitted curve, though single readings scatter.
Outcomes: active, inactive

>>> df
                                    compound  category_label
 0  CC(=O)NC1CCSC1=O (configuration not stated)        inactive
 1                                  NN=C(N)N        inactive
 2                        Clc1ccccc1N1CCNCC1        inactive
 3         COC[C@@H](NC(C)=O)C(=O)NCc1ccccc1        inactive
 4  NC(=O)CS(=O)C(c1ccccc1)c1ccccc1 (configuration not stated)        inactive
 5                    CC(C)C[C@H](CN)CC(=O)O        inactive
 6  NC(=O)[C@@H](CC1CC1)[C@@H](CCC(F)(F)F)C(=O)N[C@H]1N=C(c2ccccc2)c2cccc(F)c2NC1=O        inactive
 7                     c1ccc2c(c1)sc1ccccc12        inactive
 8  C[C@]12CCC(=O)C=C1CC[C@@H]1[C@H]3CC[C@](C)(O)[C@@]3(C)CC[C@@H]12          active
 9  C[C@@]12OC(=O)[C@]1([C@@H](O)[C@@H]1C=CCCC1)NC(=O)[C@@H]2CCCl          active
10  O=C(Oc1ccc([N+](=O)[O-])cc1)N1CCC(C(O)(c2ccc3c(c2)OCO3)c2ccc3c(c2)OCO3)CC1        inactive
11  CCN1CCN(C(=O)Cc2ccc(Nc3ncc(F)c(Nc4ccc(C(=O)Nc5ccccc5Cl)cc4)n3)cc2)CC1          active
12  CC(C)[C@]12O[C@H]1[C@@H]1O[C@]13[C@]1(O[C@H]1C[C@H]1C4=C(CC[C@@]13C)C(=O)OC4)[C@@H]2O          active
13  C[C@H]1CCC/C=C/C2C[C@H](O)C[C@H]2[C@H](O)/C=C/C(=O)O1 (some centres not stated)          active
14        O=C(N[C@H]1CN2CCC1CC2)c1ccc(Cl)cc1        inactive
15                      CCNc1nc(Cl)nc(NCC)n1        inactive
16    COC(=O)[C@@H](N)CCCN=C(N)N[N+](=O)[O-]        inactive
